Measured pKi, listed per entry.
target-entity: human AR (androgen receptor) (Homo sapiens, UniProt P10275)
Construct: expressed in transfected cells; host or cells: 293 cells (293-AR lysate)
Sequence (P10275 whole entry): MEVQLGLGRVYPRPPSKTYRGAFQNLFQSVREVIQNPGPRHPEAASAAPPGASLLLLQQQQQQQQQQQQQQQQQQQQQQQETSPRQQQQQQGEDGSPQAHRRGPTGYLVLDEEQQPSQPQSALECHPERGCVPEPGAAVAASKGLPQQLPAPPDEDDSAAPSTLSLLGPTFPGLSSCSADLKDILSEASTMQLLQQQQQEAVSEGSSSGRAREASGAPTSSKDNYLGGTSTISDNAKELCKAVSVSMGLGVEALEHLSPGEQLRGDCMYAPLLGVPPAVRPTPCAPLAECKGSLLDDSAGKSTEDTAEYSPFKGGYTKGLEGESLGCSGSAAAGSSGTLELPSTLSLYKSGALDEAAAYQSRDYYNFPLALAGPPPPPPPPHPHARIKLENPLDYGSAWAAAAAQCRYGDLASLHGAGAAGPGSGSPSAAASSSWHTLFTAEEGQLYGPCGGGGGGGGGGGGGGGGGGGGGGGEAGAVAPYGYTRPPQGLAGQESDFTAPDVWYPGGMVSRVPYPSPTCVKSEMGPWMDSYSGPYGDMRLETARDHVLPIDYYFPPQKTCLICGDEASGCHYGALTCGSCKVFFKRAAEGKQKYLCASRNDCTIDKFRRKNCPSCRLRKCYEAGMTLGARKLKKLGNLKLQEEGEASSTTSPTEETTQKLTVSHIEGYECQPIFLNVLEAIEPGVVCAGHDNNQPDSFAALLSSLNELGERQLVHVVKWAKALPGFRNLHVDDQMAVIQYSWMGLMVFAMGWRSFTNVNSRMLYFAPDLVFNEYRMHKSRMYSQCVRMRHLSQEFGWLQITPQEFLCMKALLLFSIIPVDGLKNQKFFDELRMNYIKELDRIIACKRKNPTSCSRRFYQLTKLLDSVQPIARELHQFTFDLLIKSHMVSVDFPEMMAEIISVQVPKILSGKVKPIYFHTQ
test: Steroid hormone nuclear receptor binding assay, AR binding
Procedure: Cell lysates from 293 cells overexpressing human GR (glucocorticoid receptor), AR (androgen receptor), MR (mineralocorticoid receptor) or PR (progesterone receptor) are used for competition binding assays to determine Ki values for test compounds. […] Non-specific binding is determined in the presence of 500 nM dexamethasone for GR binding, 500 nM aldosterone for MR binding, or 500 nM methyltrienolone for AR and PR binding. […]
pKi: −log10 of the molar value.
quantity-measured: pKi

In [3]: df
Out[3]:
                                   compound  numeric_result
0  CO/N=C/c1ccc2c(c1)c1c(n2Cc2cccc(F)n2)CC[C@@H](NC(=O)C2CC2)C1            8.11
1  Cc1ncc(-c2ccc3c(c2)c2c(n3Cc3cccc(F)c3)CCC(NC(=O)C(C)C)C2)cn1 (centres unmarked)            7.86
2  Cc1csc(Cn2c3c(c4cc(C#N)ccc42)C[C@H](NC(=O)C(C)C)CC3)n1            7.97
3  Cc1ccc2c(c1)c1c(n2Cc2cccc(Cl)c2)CCC(NC(=O)C(C)C)C1 (centres unmarked)            8.03
4  CC(C)C(=O)NC1CCc2c(c3cc(C(F)(F)F)ccc3n2Cc2cccc(F)c2)C1 (centres unmarked)            7.95
